assay_method_text: inhibitors of TNFa-induced NFkB p65 translocation, primary screen, imaging, HUVEC, MLSMR starter and 10KST1 sets (AID 438);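 further: compound added about 3h40 before a 20 min TNFalpha stimulation; signal is the nuclear over cytoplasmic p65 intensity ratio per well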
condition_context: HUVEC TNFa-induced p65 nuclear translocation; at 2 µM, stronger effect = higher value, 0% TNFa-plus-vehicle, 100% no-TNFa wells
endpoint_name: inhibition (%)
Report as a plain number; the unit % is understood.

Given the compound `Cc1cc(C)c(C#N)c(SCc2ccc(C#N)cc2)n1` , what is its reported inhibition?
-7.7

What inhibition value was documented for this compound, `Cc1nc2ncnn2c(N2CCC(C(=O)NC3CCCC3)CC2)c1Cc1ccccc1` ?
2.7

# get_value(readout='inhibition', item= COc1ccc(C(C(C(=O)c2ccco2)N2CCOCC2)N2CCOCC2)cc1 (stereo unspecified) )
5.4

Name the recorded inhibition for `CC(C)OCCCNC(=O)c1cc2c(s1)CS(=O)(=O)C2` .
1.9

Requested read-out: inhibition. Entry: `O=C(c1c(Cl)nc2sccn12)N(C(=O)c1c(Cl)nc2sccn12)c1ccc(Cl)cn1`
3.8

Could you tell me which inhibition is on file for `Cc1cccc(-n2ncc3c(N4CCC5(CC4)OCCO5)ncnc32)c1` ?
1.3

What does the data say about its inhibition? Entry: `COc1ccc(NC(=O)CCc2ccccc2)cc1NC(=O)c1ccco1`
2.3

I'd like to know its inhibition. The compound in question is `C=CCN1C(=O)CS/C1=N/c1nccs1`
-8.5

Recorded inhibition for `COC(=O)c1ccccc1NC(=O)c1ccc(-c2ccccc2F)o1` , please?
-5.3

Given `COc1ccc(N2CCN(c3ccc(N)cc3C#N)CC2)cc1` , state its recorded inhibition.
-6.6

Fill in the blank: the reported inhibition of CCOc1ccc(C2CC(c3cccc(C)c3)n3ncnc3N2)cc1 (stereo unspecified) is ____.
0.3

----------
study_target: Alpha-2C adrenergic receptor (Homo sapiens)
assay_method_text: compounds altering alpha2C-coupled GIRK flux – cell-based, HEK293 alpha2C/GIRK1/2, thallium flux, primary screen (AID 624);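 further: slope of fluorescence ratio to pre-addition baseline per second over 15 to 24 s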
condition_context: thallium flux BTC fluorescence, at 10 µM, actives lie on both sides
endpoint_name: slope
Write the value as a bare number.

COC(=O)C1=C(C)NC(C)=C(C(=O)OC)C1C1CC=CCC1 (stereo unspecified) = 0.00547
Cn1c(=O)c(C(=O)Nc2cccnc2)c(O)c2ccccc21 = 0.0062

Note: attention shifts to another entry.
Tell me the measured slope of O=C(NCC1CCCO1)C1CCC(CNS(=O)(=O)c2ccccc2)CC1 (stereo unspecified) , please.
0.00661

----------
study_target: Voltage-gated potassium channel subunit beta-2 (Rattus norvegicus)
assay_method_text: enhancers of rat Kvbeta2 NADPH turnover – biochemical, NADPH fluorescence, primary screen (AID 623);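 further: fluorescence intensity change per second fitted from 20 to 320 s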
condition_context: Recombinant KvBeta, NADPH fluorescence decrease slope, 10 min; at 10 µM; stronger effect = lower value
endpoint_name: NADPH fluorescence slope
Provide a numeric answer; units are not to be included.

Quick one: NADPH fluorescence slope for `CCn1c(Cc2ccccc2)nnc1SCC(=O)Nc1ccc(N2CCOCC2)c(Cl)c1` ?
-6.7e-06

What NADPH fluorescence slope value was documented for this compound, `CC1CCN(Cc2nc3c(c(=O)n(C)c(=O)n3C)n2Cc2cccc3ccccc23)CC1` ?
-2.4e-05

Report NADPH fluorescence slope for `O=C(O)c1cccc(NC(=O)C23CC4CC(C2)CC(n2cnc(Cl)n2)(C4)C3)c1` please.
-1.2e-05

Record request: NADPH fluorescence slope value, item `Cc1cc(NC(=O)c2cc3ccccc3o2)cc(C)c1OCC(=O)N1CCOCC1`
-4.4e-05

# query: NADPH fluorescence slope of entry `COc1ccc(C(=O)Nc2ccc(S(=O)(=O)Nc3onc(C)c3C)cc2)cc1`
-5.4e-05

What does the data say about its NADPH fluorescence slope? Entry: `Cc1cc(C)n(-c2cc(N3CCOCC3)nc(-c3ccccc3)n2)n1`
-1.3e-05

Field request: NADPH fluorescence slope | item: `COC(=O)c1ccc(CSc2nnc(-c3ccncc3)o2)o1`
-3.4e-05

Entry `COCCn1c(SCC(=O)Nc2cccc(OC)c2)nnc1-c1ccc(Cl)cc1` has what NADPH fluorescence slope?
-2.9e-05

Looking for the measured NADPH fluorescence slope of `Cn1cc(CN2CCc3ccccc3C2)c2ccccc21` , can you help?
-0.000148

NADPH fluorescence slope for `Cc1cccc(Cn2c(SCC(=O)Nc3ccccc3)nc3c2c(=O)[nH]c(=O)n3C)c1` ?
2.9e-05
